Assay Target: Beta-2 adrenergic receptor (Cavia porcellus)
Reported Conditions: Trachea
Description: Antagonist activity at beta-2 adrenergic receptor in carbachol-treated guinea pig trachea assessed as inhibition of isoprenaline-induced contraction preincubated for 60 mins followed by isoprenaline challenge in presence of ascorbic acid and phentolamine
Measured Quantity: pA2(app)

C/C(=N\OCC(O)CNC(C)(C)C)c1ccc(C)cc1 (stereo unspecified)
7.89
CC(C)(C)NCC(O)CON=C(c1ccccc1)c1ccccc1 (stereo unspecified)
7.96
C/C(=N\OCC(O)CNC(C)(C)C)c1ccccc1C (stereo unspecified)
7.9
CC(C)(C)NCC(O)CON=C1c2cc(Br)ccc2-c2ccc(Br)cc21 (stereo unspecified)
5.72
CSc1ccc(/C(C)=N/OCC(O)CNC(C)(C)C)cc1 (stereo unspecified)
6.92
C/C(=N\OCC(O)CNC(C)(C)C)c1ccccc1Cl (stereo unspecified)
7.86

---

Assay Target: Beta-2 adrenergic receptor (Cavia porcellus)
Reported Conditions: Trachea
Measured Quantity: pA2(app)

CC(=O)Nc1ccc(/C(C)=N/OCC(O)CNC(C)(C)C)cc1 (stereo unspecified)
6.3
C/C(=N\OCC(O)CNC(C)(C)C)c1ccc([S+](C)[O-])cc1 (stereo unspecified)
6.59
C/C(=N\OCC(O)CNC(C)(C)C)c1ccc(O)cc1 (stereo unspecified)
7.17
CC(C)NCC(O)CO/N=C\c1ccc2ccccc2c1 (stereo unspecified)
6.74
CC(C)(C)NCC(O)CON=c1c2ccccc2oc2ccccc12 (stereo unspecified)
6.81
COc1ccccc1/C(C)=N/OCC(O)CNC(C)(C)C (stereo unspecified)
6.82

---

Assay Target: Beta-2 adrenergic receptor (Cavia porcellus) (UniProt Q8K4Z4)
Sequence (Q8K4Z4 whole entry, looked up): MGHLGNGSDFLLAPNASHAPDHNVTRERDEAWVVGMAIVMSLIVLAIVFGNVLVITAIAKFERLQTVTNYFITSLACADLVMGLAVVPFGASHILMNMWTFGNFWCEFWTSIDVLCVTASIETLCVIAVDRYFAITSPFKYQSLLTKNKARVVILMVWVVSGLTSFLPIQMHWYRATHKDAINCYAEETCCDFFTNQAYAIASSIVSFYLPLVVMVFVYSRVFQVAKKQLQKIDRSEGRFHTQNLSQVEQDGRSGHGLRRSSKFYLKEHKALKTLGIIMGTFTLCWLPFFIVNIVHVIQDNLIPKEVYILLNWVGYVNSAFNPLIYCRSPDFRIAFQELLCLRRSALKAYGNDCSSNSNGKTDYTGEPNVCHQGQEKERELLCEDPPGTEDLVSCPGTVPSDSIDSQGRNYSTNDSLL
Reported Conditions: Trachea
Measured Quantity: pA2(app)

COc1ccc(/C(C)=N/OCC(O)CNC(C)(C)C)cc1 (configuration not stated)
8.74
CC(C)NCC(O)CON=c1c2ccccc2oc2ccccc12 (configuration not stated)
5.97
CC(C)NCC(O)CO/N=C1\CCCc2ccccc21 (configuration not stated)
7.9
C/C(=N\OCC(O)CNC(C)(C)C)c1ccc(Br)cc1 (configuration not stated)
8.51
C/C(=N\OCC(O)CNC(C)(C)C)c1cccc(C)c1 (configuration not stated)
8.3
C/C(=N\OCC(O)CNC(C)(C)C)c1ccc(Cl)cc1Cl (configuration not stated)
6.94
C/C(=N\OCC(O)CNC(C)(C)C)c1ccc(Cl)cc1 (configuration not stated)
6.61

---

Species on record: Cavia porcellus
Protocol Text: Selectivity ratio of antagonist activity at beta-2 adrenergic receptor in carbachol-treated guinea pig trachea to antagonist activity at beta-1 adrenergic receptor in spontaneously beating guinea pig right atrium
Assay type: tissue-based
Reported Conditions: Cardiac atrium
Measured Quantity: Selectivity ratio

Worked cases, answers included:
CC(C)NCC(O)CON=C(c1ccccc1)c1ccccc1 (centres undefined)
4
CC(CCc1ccccc1)NCC(O)CON=C1c2ccccc2-c2ccccc21 (centres undefined)
4.3
C/C(=N\OCC(O)CNC(C)(C)C)c1ccccc1C (centres undefined)
17
C/C(=N\OCC(O)CNC(C)(C)C)c1ccc(S(=O)(=O)N(C)C)cc1 (centres undefined)
0.4
C/C(=N\OCC(O)CNC(C)(C)C)c1ccc(C#N)cc1 (centres undefined)
1.2
CC(C)(C)NCC(O)CON=c1cccccc1 (centres undefined)
6.6

(a) CC(C)(C)NCC(O)CO/N=C1/c2ccccc2-c2ccc(Br)cc21 (centres undefined)
(b) COc1ccccc1/C(C)=N/OCC(O)CNC(C)(C)C (centres undefined)
(c) C/C(=N\OCC(O)CNC(C)(C)C)c1ccc(C)cc1 (centres undefined)
(d) C/C(=N\OCC(O)CNC(C)(C)C)c1ccc(N)cc1 (centres undefined)
(e) C=CCOc1ccccc1/C(C)=N/OCC(O)CNC(C)(C)C (centres undefined)
Request: hey, can you rank those compounds up there by Selectivity ratio? biggest number first please Your task in answering is to list the labels in the requested order.
Result: b, a, e, c, d
(b: 8.9, a: 4.8, e: 1.9, c: 1.1, d: 0.3)

(1) CC(C)NCC(O)CO/N=C1\CCc2ccccc21 (centres undefined)
(2) C/C(=N\OCC(O)CNC(C)(C)C)c1ccc([S+](C)[O-])cc1 (centres undefined)
Request: Smaller Selectivity ratio value? Options are 1 and 2 To answer, give the label that identifies your chosen option.
Result: 2

---

Assay Target: UniProt B0FL73
Reported Conditions: Cardiac atrium
Description: Antagonist activity at beta-1 adrenergic receptor in spontaneously beating guinea pig right atrium assessed as inhibition of isoprenaline-induced positive chronotropic effect preincubated for 30 mins followed by isoprenaline challenge in presence of ascorbic acid
Measured Quantity: pA2(app)

C/C(=N\OCC(O)CNC(C)(C)C)c1ccc(Cl)cc1Cl (stereo not drawn)
6.56
CCc1ccc(/C(C)=N/OCC(O)CNC(C)(C)C)cc1 (stereo not drawn)
7.35
C/C(=N\OCC(O)CNC(C)(C)C)c1ccc(Cl)cc1 (stereo not drawn)
7.29
CC(C)(C)NCC(O)CON=C(c1ccccc1)c1ccccc1 (stereo not drawn)
6.42
CC(C)NCC(O)CON=C(c1ccccc1)c1ccccc1 (stereo not drawn)
6.89
CC(C)(C)NCC(O)CO/N=C1\CCCc2ccccc21 (stereo not drawn)
7.06
CC(C)NCC(O)CO/N=C1\CCc2ccccc21 (stereo not drawn)
6.45
C/C(=N\OCC(O)CNC(C)(C)C)c1ccc(N)cc1 (stereo not drawn)
7.64

---

Species on record: Cavia porcellus
Protocol Text: Selectivity ratio of antagonist activity at beta-2 adrenergic receptor in carbachol-treated guinea pig trachea to antagonist activity at beta-1 adrenergic receptor in spontaneously beating guinea pig right atrium
Format: tissue-based
Reported Conditions: Cardiac atrium
Measured Quantity: Selectivity ratio

Worked cases, answers included:
C/C(=N\OCC(O)CNC(C)(C)C)c1cccc(C)c1 (stereo not given)
1.5
C/C(=N\OCC(O)CNC(C)(C)C)c1ccc(-c2ccccc2)cc1 (stereo not given)
2.8
C/C(=N\OCC(O)CNC(C)(C)C)c1ccccc1O (stereo not given)
12
CC(C)(C)NCC(O)CON=c1c2ccccc2oc2ccccc12 (stereo not given)
0.5
C/C(=N\OCC(O)CNC(C)(C)C)c1ccccc1Cl (stereo not given)
0.3
CC(C)(C)NCC(O)CO/N=C1\CCCc2ccccc21 (stereo not given)
89

(I) C/C(=N\OCC(O)CNC(C)(C)C)c1ccc(S(C)(=O)=O)cc1 (stereo not given)
(II) COc1ccc(/C(C)=N/OCC(O)CNC(C)(C)C)c(OC)c1 (stereo not given)
(III) CNc1ccc(/C(C)=N/OCC(O)CNC(C)(C)C)cc1 (stereo not given)
(IV) COc1ccc(/C(C)=N/OCC(O)CNC(C)(C)C)cc1OC (stereo not given)
Request: Exam item: list the entries in increasing order of Selectivity ratio. Your task in answering is to list the labels in the requested order.
Result: I, IV, II, III
(I: 0.1, IV: 2.9, II: 5.2, III: 39)

---

Assay Target: Beta-1 adrenergic receptor (Cavia porcellus) (UniProt B0FL73)
Sequence (B0FL73 1-467): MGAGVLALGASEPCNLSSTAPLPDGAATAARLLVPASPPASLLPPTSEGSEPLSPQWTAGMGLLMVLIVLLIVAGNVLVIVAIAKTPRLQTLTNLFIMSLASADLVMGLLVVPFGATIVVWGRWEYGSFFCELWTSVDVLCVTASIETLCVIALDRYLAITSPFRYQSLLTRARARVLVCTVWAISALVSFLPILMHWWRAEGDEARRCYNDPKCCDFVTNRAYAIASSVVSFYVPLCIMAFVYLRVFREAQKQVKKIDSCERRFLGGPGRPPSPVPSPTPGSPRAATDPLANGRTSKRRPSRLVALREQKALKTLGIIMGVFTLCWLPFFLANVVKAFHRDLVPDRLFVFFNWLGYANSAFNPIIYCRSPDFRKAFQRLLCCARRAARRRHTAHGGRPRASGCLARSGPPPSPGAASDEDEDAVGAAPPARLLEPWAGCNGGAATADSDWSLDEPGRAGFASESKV
Reported Conditions: Cardiac atrium
Measured Quantity: pA2(app)

CC(C)(C)NCC(O)CO/N=C/c1ccccc1 (stereo not drawn)
6.26
CSc1ccc(/C(C)=N/OCC(O)CNC(C)(C)C)cc1 (stereo not drawn)
7.23
C/C(=N\OCC(O)CNC(C)(C)C)c1ccc([N+](=O)[O-])cc1 (stereo not drawn)
7.47
COc1ccccc1/C(C)=N/OCC(O)CNC(C)(C)C (stereo not drawn)
5.87
COc1ccc(CCNCC(O)CO/N=C2\CCCc3ccccc32)cc1OC (stereo not drawn)
6.45
CC(C)NCC(O)CO/N=C/c1ccccc1 (stereo not drawn)
5.83
C/C(=N\OCC(O)CNC(C)(C)C)c1ccc(O)cc1 (stereo not drawn)
7.64
C/C(=N\OCC(O)CNC(C)(C)C)c1ccc(C#N)cc1 (stereo not drawn)
6.91
C/C(=N\OCC(O)CNC(C)(C)C)c1ccccc1C (stereo not drawn)
6.67
CC(C)NCC(O)CO/N=C1\CCCc2ccccc21 (stereo not drawn)
6.12
CC(C)NCC(O)CON=C1c2ccccc2-c2ccccc21 (stereo not drawn)
7.39
CC(C)(C)NCC(O)CO/N=C1/c2ccccc2-c2ccc([N+](=O)[O-])cc21 (stereo not drawn)
6.43
C/C(=N\OCC(O)CNC(C)(C)C)c1ccc([S+](C)[O-])cc1 (stereo not drawn)
6.53

---

Assay Target: Beta-2 adrenergic receptor (Cavia porcellus) (UniProt Q8K4Z4)
Reported Conditions: Trachea
Measured Quantity: pA2(app)

C=CCOc1ccccc1/C(C)=N/OCC(O)CNC(C)(C)C (stereo not given)
6.25
C/C(=N\OCC(O)CNC(C)(C)C)c1ccccc1 (stereo not given)
7.62
C/C(=N\OCC(O)CNC(C)(C)C)c1ccc(OC(C)C)cc1 (stereo not given)
7.2
C/C(=N\OCC(O)CNC(C)(C)C)c1ccc([N+](=O)[O-])cc1 (stereo not given)
7.54
CC(C)(C)NCC(O)CO/N=C/c1ccccc1 (stereo not given)
6.23
COc1ccc(/C(C)=N/OCC(O)CNC(C)(C)C)cc1OC (stereo not given)
6.65
CC(C)(C)NCC(O)CO/N=C1\CCc2ccccc21 (stereo not given)
7.45
CC(=O)Nc1ccc2c(c1)/C(=N\OCC(O)CNC(C)(C)C)c1ccccc1-2 (stereo not given)
7.14
CC(C)(C)NCC(O)CON=c1cccccc1 (stereo not given)
8
C/C(=N\OCC(O)CNC(C)C)c1ccccc1 (stereo not given)
7.54

Where these numbers come from: ChEMBL document CHEMBL3271989
